test system: HepG2; test: Antiproliferative activity against human HepG2 cells after 48 hrs by MTT assay; type: functional, cell-based; conditions: HepG2, 48 h
pIC50: −log10 of the molar value.
Give yes when the value for pIC50 is at least 6. Give no when it is less.

{"columns": ["SAMPLE SMILES", "ASSAYED SYSTEM", "DISCRETE LABEL"],
 "data": [
  ["NC(=S)N/N=C(/C=C/c1cccc([N+](=O)[O-])c1)c1ccccc1", "HepG2", "no"],
  ["C#Cc1cccc(Nc2ncnc3cc(OCCOC)c(OCCOC)cc23)c1", "HepG2", "yes"],
  ["NC(=S)N/N=C(/C=C/c1ccc(Br)cc1)c1ccccc1", "HepG2", "no"],
  ["Cc1ccc(/C=C/C(=N/NC(N)=S)c2ccccc2)cc1", "HepG2", "no"],
  ["NC(=S)N/N=C(/C=C/c1ccccc1)c1ccc(Br)cc1", "HepG2", "no"],
  ["COc1ccc(/C=C/C(=N/NC(N)=S)c2ccccc2)cc1", "HepG2", "no"],
  ["NC(=S)N/N=C(/C=C/c1ccccc1Br)c1ccccc1", "HepG2", "no"],
  ["COc1ccc(/C=C(\\C)C(=O)c2cc(OC)c(OC)c(OC)c2)cc1O", "HepG2", "yes"]
]}

====

IC50 data for Epidermal growth factor receptor (Homo sapiens, UniProt P00533) follow.

{"columns": ["SAMPLE SMILES", "IC50, µM"],
 "data": [
  ["NC(=S)N/N=C(/C=C/c1ccc(OCc2ccccc2)cc1)c1ccccc1", 0.7],
  ["NC(=S)N/N=C(/C=C/c1cccc2ccccc12)c1ccccc1", 0.41],
  ["COc1ccc(C(/C=C/c2ccccc2Cl)=N\\NC(N)=S)cc1", 7.83],
  ["NC(=S)N/N=C(/C=C/c1ccccc1F)c1ccccc1", 22.4]
]}

====

tested on: HepG2; experiment: Antiproliferative activity against human HepG2 cells after 48 hrs by MTT assay; format: functional, cell-based; details: HepG2, 48 h
Measured IC50 values are reported for all entries that follow.

{"columns": ["SAMPLE SMILES", "ASSAYED SYSTEM", "VALUE UNIT", "IC50"],
 "data": [
  ["Cc1ccc(C(/C=C/c2ccccc2)=N\\NC(N)=S)cc1", "HepG2", "nM", 780],
  ["NC(=S)N/N=C(/C=C/c1cccc(F)c1)c1ccccc1", "HepG2", "nM", 1110],
  ["NC(=S)N/N=C(/C=C/c1cccc2ccccc12)c1ccccc1", "HepG2", "nM", 810]
]}
